Biological target: phosphorylated BTK in Ramos cells (Homo sapiens (Human), UniProt Q06187)
Sequence (Q06187 whole entry): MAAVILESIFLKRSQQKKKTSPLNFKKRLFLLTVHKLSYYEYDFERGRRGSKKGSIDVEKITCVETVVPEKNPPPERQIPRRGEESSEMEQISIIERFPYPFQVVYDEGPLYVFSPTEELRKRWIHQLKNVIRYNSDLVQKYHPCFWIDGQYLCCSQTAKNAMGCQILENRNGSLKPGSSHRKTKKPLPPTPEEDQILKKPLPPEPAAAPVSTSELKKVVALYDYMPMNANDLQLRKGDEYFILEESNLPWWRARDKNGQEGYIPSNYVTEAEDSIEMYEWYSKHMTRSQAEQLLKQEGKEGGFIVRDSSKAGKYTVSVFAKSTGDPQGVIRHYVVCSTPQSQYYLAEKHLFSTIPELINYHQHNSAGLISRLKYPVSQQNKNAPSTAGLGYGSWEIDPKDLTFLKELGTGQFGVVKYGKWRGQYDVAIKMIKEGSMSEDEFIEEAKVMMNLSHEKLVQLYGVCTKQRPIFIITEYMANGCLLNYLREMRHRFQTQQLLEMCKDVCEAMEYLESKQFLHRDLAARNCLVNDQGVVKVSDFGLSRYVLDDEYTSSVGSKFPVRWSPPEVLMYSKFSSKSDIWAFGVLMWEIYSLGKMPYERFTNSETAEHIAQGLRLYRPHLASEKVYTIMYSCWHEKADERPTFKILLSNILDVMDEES
Assay: Determination of phosphorylated BTK in Ramos cells (BTK phospho-Y223 HTRF)
Conditions: anti-human IgM + hydrogen peroxide stimulation
property.name: pIC50
Quick note: pIC50 values are minus log10 of concentrations in mol/L.

Query: Could you share what pIC50 was measured for Cn1cc(-c2ccnc(-n3ccn4c5c(cc4c3=O)CC(C)(C)C5)c2CO)cc(Nc2ccc(N3CCC4C3CCN4C3COC3)cn2)c1=O (stereo not shown) , tested on phosphorylated BTK in Ramos cells (Homo sapiens (Human), UniProt Q06187)?
Response: 8.40

Query: Could you share what pIC50 was measured for C[C@H]1COCCN1c1ccc(Nc2cc(-c3ccnc(-n4ccn5c6c(cc5c4=O)CC(C)(C)C6)c3CO)cn(C)c2=O)nn1 , tested on phosphorylated BTK in Ramos cells (Homo sapiens (Human), UniProt Q06187)?
Response: 8.15

Query: Could you share what pIC50 was measured for COCCN1CCn2nc(Nc3cc(-c4ccnc(-n5ncn6c7c(cc6c5=O)CC(C)(C)C7)c4CO)cn(C)c3=O)cc2C1 , tested on phosphorylated BTK in Ramos cells (Homo sapiens (Human), UniProt Q06187)?
Response: 8.70

Query: Could you share what pIC50 was measured for C[C@@H]1CN(c2ccc(Nc3cc(-c4ccnc(-n5ccn6c7c(cc6c5=O)CCC7)c4CO)cn(C)c3=O)nc2)[C@@H](C)CN1C1COC1 , tested on phosphorylated BTK in Ramos cells (Homo sapiens (Human), UniProt Q06187)?
Response: 8.00
